measurement-target: T1, UbaA, E1-like SAMP-activating enzyme of Haloferax volcanii, purified wild type (Haloferax volcanii, UniProt D4GSF3 1-270)
T1 sequence (looked up): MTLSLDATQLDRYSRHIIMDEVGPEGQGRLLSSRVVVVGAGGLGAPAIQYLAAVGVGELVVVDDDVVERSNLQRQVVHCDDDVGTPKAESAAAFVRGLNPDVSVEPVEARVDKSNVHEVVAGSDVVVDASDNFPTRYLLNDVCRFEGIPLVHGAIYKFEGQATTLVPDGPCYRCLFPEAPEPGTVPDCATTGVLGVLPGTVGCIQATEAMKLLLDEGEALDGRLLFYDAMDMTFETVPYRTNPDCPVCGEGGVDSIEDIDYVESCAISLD
protocol-description: ITC
assay-metric: pKd
Numbers only, as −log10 of the molar value.

Query: Return reported pKd; argument: SAMP1, small ubiquitin-like archaeal modifier protein 1, purified (natural protein, Haloferax volcanii, UniProt D4GUF6 1-87, looked up) MEWKLFADLAEVAGSRTVRVDVDGDATVGDALDALVGAHPALESRVFGDDGELYDHINVLRNGEAAALGEATAAGDELALFPPVSGG
Result: 5.77
